Target: JAK1 (Homo sapiens)
Construct: endogenous in cells
Sequence (P23458 whole entry): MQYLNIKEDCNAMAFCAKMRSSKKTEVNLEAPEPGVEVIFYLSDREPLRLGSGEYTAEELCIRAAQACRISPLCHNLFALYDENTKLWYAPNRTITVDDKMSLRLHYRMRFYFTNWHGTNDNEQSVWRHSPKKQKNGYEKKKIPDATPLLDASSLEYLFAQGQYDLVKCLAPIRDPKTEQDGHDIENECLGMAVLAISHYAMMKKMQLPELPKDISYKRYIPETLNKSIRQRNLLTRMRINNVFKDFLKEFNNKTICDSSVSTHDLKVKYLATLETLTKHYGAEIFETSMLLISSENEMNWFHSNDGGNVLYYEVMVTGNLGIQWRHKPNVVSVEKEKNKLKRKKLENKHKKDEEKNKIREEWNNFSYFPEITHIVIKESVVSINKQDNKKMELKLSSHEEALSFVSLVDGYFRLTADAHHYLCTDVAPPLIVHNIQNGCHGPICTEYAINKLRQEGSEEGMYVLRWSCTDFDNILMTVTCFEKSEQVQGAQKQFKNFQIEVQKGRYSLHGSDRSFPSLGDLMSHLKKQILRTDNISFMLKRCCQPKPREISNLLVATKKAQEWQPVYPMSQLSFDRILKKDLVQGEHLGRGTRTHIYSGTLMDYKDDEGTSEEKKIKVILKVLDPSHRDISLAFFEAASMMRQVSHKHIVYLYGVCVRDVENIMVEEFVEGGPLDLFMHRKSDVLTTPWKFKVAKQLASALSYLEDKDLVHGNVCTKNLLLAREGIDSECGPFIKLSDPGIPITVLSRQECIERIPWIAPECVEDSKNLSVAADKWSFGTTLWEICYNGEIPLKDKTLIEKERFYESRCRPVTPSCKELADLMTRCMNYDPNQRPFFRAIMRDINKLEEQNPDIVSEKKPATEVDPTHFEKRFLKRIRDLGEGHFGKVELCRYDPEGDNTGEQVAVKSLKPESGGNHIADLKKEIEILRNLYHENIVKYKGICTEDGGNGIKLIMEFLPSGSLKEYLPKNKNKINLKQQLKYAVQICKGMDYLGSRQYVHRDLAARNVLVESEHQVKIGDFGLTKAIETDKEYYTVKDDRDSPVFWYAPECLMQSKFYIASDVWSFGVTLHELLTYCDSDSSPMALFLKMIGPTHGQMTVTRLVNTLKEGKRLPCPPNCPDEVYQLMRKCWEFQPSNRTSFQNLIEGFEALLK
Assay: Kinobeads assay, JAK1
Conditions: mixed Molt4/Ramos lysate, read-out: Inhibition values (IC50) JAK1

molecule | IC50
OCCn1cc(Nc2ncc(Cl)c(N[C@H](CO)c3ccccc3)n2)cn1 | 100 to 1000 nM
Cn1cc(Nc2ncc(Cl)c(N[C@H](C(=O)NC3CCCC3)c3ccccc3)n2)cn1 | > 10000 nM
CNC(=O)Cn1cc(Nc2ncc(Cl)c(N[C@H](CO)c3cc(F)ccc3F)n2)cn1 | < 100 nM
Cn1cc(Nc2ncc(Cl)c(NC(CO)c3c(F)cccc3F)n2)cn1 (centres unmarked) | 1000 to 10000 nM
OCCn1cc(Nc2ncc(Cl)c(NC(CO)c3ccc(F)cc3)n2)cn1 (centres unmarked) | 1000 to 10000 nM
Cn1cc(Nc2ncc(Cl)c(N[C@H](CO)c3cccc(N4CCOCC4=O)c3F)n2)cn1 | 1000 to 10000 nM
COCCNC(=O)[C@@H](Nc1nc(Nc2cnn(C)c2)ncc1Cl)c1ccccc1 | 1000 to 10000 nM
OCC[C@@H](Nc1nc(Nc2cnn(CCO)c2)ncc1Cl)c1ccccc1 | 1000 to 10000 nM
Cn1cc(Nc2ncc(Cl)c(NC(CO)c3ccccc3Cl)n2)cn1 (centres unmarked) | 1000 to 10000 nM
CNC(=O)Cn1cc(Nc2ncc(Cl)c(N[C@H](CO)c3cccc(OC)c3)n2)cn1 | 1000 to 10000 nM
Cn1cc(Nc2ncc(Cl)c(NC(CO)c3cccc(-c4cnn(C)c4)c3)n2)cn1 (centres unmarked) | > 10000 nM
NC(=O)Cn1cc(Nc2ncc(Cl)c(N[C@H](CO)c3ccccc3)n2)cn1 | 100 to 1000 nM
Cn1cc(Nc2ncc(F)c(N[C@H](CO)c3cc(F)cc(-c4cnn(C)c4)c3)n2)cn1 | 1000 to 10000 nM
Cn1cc(Nc2ncc(Cl)c(NC(C)(CO)c3ccccc3)n2)cn1 (centres unmarked) | 1000 to 10000 nM
Cn1cc(Nc2ncc(C(F)(F)F)c(N[C@H](CO)c3ccccc3)n2)cn1 | > 10000 nM
Cn1cc(-c2cc(F)cc([C@@H](CO)Nc3nc(Nc4cnn(CCO)c4)ncc3F)c2)cn1 | 1000 to 10000 nM
CCC(Nc1nc(Nc2cnn(CC(N)=O)c2)ncc1Cl)c1ccccc1F (centres unmarked) | 100 to 1000 nM
